# ASSAYED SYSTEM: human Mnk2a (Homo sapiens)
# ASSAY COMMENT: Mnk2a in vitro kinase assay (indirect fluorescence polarization)
# ASSAY CONDITIONS: GST-Mnk2a pre-activated with ERK2, 20 μM ATP, 30 μM substrate peptide; read-out: MNK2 IC50
Mark met only for IC50 values smaller than 50 nM; exact matches and larger values are not met.

Illustrative cases are given below, each with its answer.
Cc1c(C(=O)NCC2(C)CCN(C)C2)sc2ncnc(Nc3ccc(F)cc3OC3CCOCC3)c12 (centres unmarked); not met
Cc1c(C(=O)NCC(N)=O)sc2ncnc(Nc3ccc(F)cc3OC3CCOCC3)c12; met
Cc1c(C(=O)NCC#CCN(C)C)sc2ncnc(Nc3ccc(F)cc3OC3CCOCC3)c12; met
Cc1c(C(=O)NC[C@@H]2CCC(=O)N2)sc2ncnc(Nc3ccc(F)cc3OC3CCCNC3)c12 (some centres unmarked); not met

## Input Consider the compound Cc1c(C(=O)NCC2CCOCC2)sc2ncnc(Nc3ccc(F)cc3OC3CCCNC3)c12 (centres unmarked) . Is its IC50 strictly less than 50 nM?
## Output not met

## Input # TODO verify IC50 < 50 nM strictly for this compound: Cc1c(C(=O)N[C@H]2CC[C@@H](O)CC2)sc2ncnc(Nc3ccc(F)cc3OC3CCOCC3)c12
## Output met

## Input Dear colleague, could you confirm whether IC50 of Cc1c(C(=O)NCC2CCCOC2)sc2ncnc(Nc3ccc(F)cc3OC3CCOCC3)c12 (centres unmarked) falls below 50 nM? Thanks.
## Output met

----------
# ASSAYED SYSTEM: human Mnk2a (Homo sapiens, UniProt Q9HBH9)
# Sequence (Q9HBH9 whole entry): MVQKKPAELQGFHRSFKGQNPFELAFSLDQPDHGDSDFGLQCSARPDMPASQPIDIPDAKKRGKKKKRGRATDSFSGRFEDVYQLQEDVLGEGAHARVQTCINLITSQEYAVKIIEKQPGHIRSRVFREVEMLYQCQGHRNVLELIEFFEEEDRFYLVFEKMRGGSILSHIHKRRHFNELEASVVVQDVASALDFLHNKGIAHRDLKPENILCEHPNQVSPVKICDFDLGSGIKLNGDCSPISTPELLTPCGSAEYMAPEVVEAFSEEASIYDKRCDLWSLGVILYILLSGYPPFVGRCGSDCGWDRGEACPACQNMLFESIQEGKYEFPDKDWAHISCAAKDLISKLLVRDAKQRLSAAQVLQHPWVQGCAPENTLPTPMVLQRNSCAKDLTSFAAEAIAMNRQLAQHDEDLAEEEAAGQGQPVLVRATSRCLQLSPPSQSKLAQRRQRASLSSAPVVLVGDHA
# ASSAY COMMENT: Mnk2a in vitro kinase assay (indirect fluorescence polarization)
# ASSAY CONDITIONS: GST-Mnk2a pre-activated with ERK2, 20 μM ATP, 30 μM substrate peptide; read-out: MNK2 IC50
# Experimental: Inhibitory potency of compounds against Mnk1, Mnk2a and other kinases was assessed with assays based on a format known to those skilled in the art as the indirect (competitive) fluorescence polarization. The assay detection system comprises a small fluorophore-labeled phospho-peptide (termed ligand) bound to a phospho-specific antibody. The product generated by the kinase reaction competes with the ligand for antibody binding. […]
Measured pIC50 of individual entries
Formally, pIC50 is defined as -log10 of the concentration c, with c in mol/L.

Previously resolved entries follow.
Cc1c(C(=O)NCCN2CCNC2=O)sc2ncnc(Nc3ccc(F)cc3OC3CCOCC3)c12; 7.12
Cc1c(C(N)=O)sc2ncnc(Nc3ccc(F)cc3O[C@H]3CCCN(Cc4ncon4)C3)c12; 6.96
Cc1c(C(=O)NCC2CCC(=O)N2)sc2ncnc(Nc3ccc(F)cc3OC3CCOCC3)c12 (centres unmarked); 7.15
Cc1c(C(=O)NC2(CO)CCCC2)sc2ncnc(Nc3ccc(F)cc3OC3CCOCC3)c12; 7.28
Cc1c(C(=O)NCC(=O)N2CCCC2)sc2ncnc(Nc3ccc(F)cc3OC3CCOCC3)c12; 7.51
Cc1c(C(=O)Nc2ccn(C)c(=O)n2)sc2ncnc(Nc3ccc(F)cc3OC3CCOCC3)c12; 7.36

## Input Recorded pIC50 for COC[C@H]1CCCN1CCCNC(=O)c1sc2ncnc(Nc3ccc(F)cc3OC3CCOCC3)c2c1C with human Mnk2a (Homo sapiens, UniProt Q9HBH9), please?
## Output 7.48

## Input Value wanted: pIC50 (human Mnk2a (Homo sapiens, UniProt Q9HBH9)) of entry Cc1c(C(N)=O)sc2ncnc(Nc3ccc(F)cc3O[C@H]3CCCN(CC(F)(F)F)C3)c12
## Output 6.96
